# target desc: T1, recombinant human IL-23R/Fc chimera (R&D Systems) (human, UniProt Q5VWK5 24-355)
# T1 construct: Bought; also called rhIL23RFc
# T1 sequence (looked up): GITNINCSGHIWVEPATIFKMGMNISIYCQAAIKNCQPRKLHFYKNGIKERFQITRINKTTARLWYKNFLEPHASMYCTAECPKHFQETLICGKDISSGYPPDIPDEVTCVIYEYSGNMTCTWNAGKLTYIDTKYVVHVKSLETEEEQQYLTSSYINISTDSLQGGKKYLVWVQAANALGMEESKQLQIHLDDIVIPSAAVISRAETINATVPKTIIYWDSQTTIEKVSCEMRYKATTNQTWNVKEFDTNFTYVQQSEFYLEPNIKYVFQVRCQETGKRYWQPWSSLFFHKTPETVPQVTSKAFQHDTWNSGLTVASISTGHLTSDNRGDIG
# assay overview: SPR
Listing of entries alongside the reported Ka.
The answer is to be given in M⁻¹; state only the numeric part.

Completed entries (count: 5):
binder: 105-08-1D3 ATRIMER complex (designed binder) EPPTQKPKKIVNAKKDVVNTKMFEELKSRLDTLAQEVALLKEQQALQTVCLKGTKVHMKCFLAFTQTKTFHEASEDCISRGGTLSTPQTGSENDALYEYLRQSVGNEAEIWLGLNGSKVTETWVDMTGARIAYKNWETEITAQPDGGFGYFGENCAVLSGAANGKWFDKRCRDQLPYICQFGIV
recorded result: 7.58e+08
--
binder: 101-54-4B6 ATRIMER complex (designed binder) EPPTQKPKKIVNAKKDVVNTKMFEELKSRLDTLAQEVALLKEQQALQTVCLKGTKVHMKCFLAFTQTKTFHEASEDCISRGGTLSTPQTGSENDALYEYLRQSVGNEAEIWLGLNGSALTNTWVDMTGARIAYKNWEPPGPHHPMGGFGVFGENCAVLSGAANGKWFDKRCRDQLPYICQFGIV
recorded result: 1.76e+09
--
binder: 105-08-2G10 ATRIMER complex (designed binder) EPPTQKPKKIVNAKKDVVNTKMFEELKSRLDTLAQEVALLKEQQALQTVCLKGTKVHMKCFLAFTQTKTFHEASEDCISRGGTLSTPQTGSENDALYEYLRQSVGNEAEIWLGLNGSPLTDTWVDMTGARIAYKNWETEITAQPDGGFGYFGENCAVLSGAANGKWFDKRCRDQLPYICQFGIV
recorded result: 7.58e+08
--
binder: 101-113-6C102 ATRIMER complex (designed binder, not shown: C-terminal tag) EPPTQKPKKIVNAKKDVVNTKMFEELKSRLDTLAQEVALLKEQQALQTVCLKGTKVHMKCFLAFTQTKTFHEASEDCISRGGTLSTPQTGSENDALYEYLRQSVGNEAEIWLGLNGSNVTQTWVDMTGARIAYKNWEPPPPHHPQGGFGVFGENCAVLSGAANGKWFDKRCRDQLPYICQFGIV
recorded result: 9.62e+08
--
binder: 001-87.A4A monomeric CTLD (designed binder, C-terminal tag not specified) ALQTVCLKGTKVHMKCFLAFTQTKTFHEASEDCISRGGTLSTPQTGSENDALYEYLRQSVGNEAEIWLGLNWTLAKNLWVDMTGARIAYKNWETEITAQPDGGLFGRGENCAVLSGAANGKWFDKRCRDQLPYICQFGIV
recorded result: 5.18e+06

Lab note: next binder to report on.
Input: Any idea what Ka was measured for 001-89.C7F monomeric CTLD (designed binder) ALQTVCLKGTKVHMKCFLAFTQTKTFHEASEDCISRGGTLSTPQTGSENDALYEYLRQSVGNEAEIWLGLNGSLLTGLWVDMTGARIAYKNWETEITAQPDGGYGAWGENCAVLSGAANGKWFDKRCRDQLPYICQFGIV ?
Output: 6.75e+06
